pIC50: −log10 of the molar value.
Literature compilation of pIC50 measurements on UniProt P15121.
Assay Readout: pIC50

(P) COc1ccc(/N=c2\oc3cc(O)ccc3cc2C(=O)Nc2ccccn2)c(OC)c1
(Q) O=c1ccc(S(=O)(=O)Cc2c(Cl)cccc2Cl)n[nH]1
(R) O=C(O)Cc1nn(Cc2nc3ccc(C(F)(F)F)cc3s2)c(=O)c2ccccc12
(S) COc1ccc(/C=C2\SC(=O)NC2=O)cc1
(T) O=c1ccc(S(=O)(=O)c2cccc(F)c2F)n[nH]1
Request: I'd appreciate it if you sorted the entries above by their pIC50, lowest to highest. Give me the labels in the order the question wants.
Response: S, T, Q, P, R
(S: 4.39, T: 6.41, Q: 7.28, P: 7.68, R: 8.51)

(A) Oc1ccc(CCc2ccc(O)c(O)c2)cc1O
(B) COc1ccc(OC)c(/N=c2\oc3cc(O)ccc3cc2C(=O)Nc2ccccn2)c1
(C) COc1cc(COc2ccccc2C2(C)CN(CC(=O)O)C(=O)O2)cc(OC)c1OC (stereo not drawn)
(D) COc1cccc(/C=C2\SC(=O)N(CC(=O)O)C2=O)c1
(E) COc1cccc(/C=C2\SC(=O)NC2=O)c1
Request: List by increasing pIC50. Give me the labels in the order the question wants.
Response: A, E, C, D, B

(P) O=c1ccc(S(=O)(=O)c2cccc(Cl)c2Cl)n[nH]1
(Q) O=C1NC(=O)/C(=C/c2cccc(Oc3ccccc3)c2)S1
Request: In terms of reported pIC50, does P or Q have the smaller number? Please identify the chosen entry by its label.
Response: Q
